B1: library; numbered along this chain (parent)
chain: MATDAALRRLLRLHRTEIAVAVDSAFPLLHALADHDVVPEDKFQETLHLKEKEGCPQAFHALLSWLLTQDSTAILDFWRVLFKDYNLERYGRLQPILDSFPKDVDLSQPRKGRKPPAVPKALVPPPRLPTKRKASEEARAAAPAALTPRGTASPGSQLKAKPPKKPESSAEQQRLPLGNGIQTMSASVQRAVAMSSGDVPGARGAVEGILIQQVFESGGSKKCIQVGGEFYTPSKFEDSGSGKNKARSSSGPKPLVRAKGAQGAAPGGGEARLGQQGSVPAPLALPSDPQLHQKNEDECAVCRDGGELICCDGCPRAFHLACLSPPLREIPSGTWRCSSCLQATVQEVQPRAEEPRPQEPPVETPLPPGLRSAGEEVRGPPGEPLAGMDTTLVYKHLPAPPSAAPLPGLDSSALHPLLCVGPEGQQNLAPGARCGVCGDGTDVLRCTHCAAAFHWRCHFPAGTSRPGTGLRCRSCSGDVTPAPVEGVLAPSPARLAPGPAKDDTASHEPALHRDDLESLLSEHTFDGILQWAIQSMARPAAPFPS

# Variants of: B1
# METHOD SUMMARY: AIRE transcriptional activation functional score (insulin promoter-GFP; nonsense median 0, synonymous median 1) (normalised score); higher = higher AIRE activity (more reporter activation)
# TEST SETTINGS: with insulin promoter-GFP reporter in HEK293
Decision: AIRE transcriptional activation functional score compared against 0.9; not below it gives 1, below it gives 0.

1) L49Y	0
2) P509N	0
3) R127C	0
4) I211C	0
5) L29S	0
6) P326G	0
7) V206Y	1
8) D103L	0
9) A205N	0
10) Q349P	0
11) E207C	0
12) Q262Y	1
13) S278V	1
14) L128Y	1
15) A271M	1
16) G208H	0
17) T334S	1
18) L392W	1
19) L428A	1
20) P254L	1

Origin of measurements: the supplement of paper PMC12667976
